tested on: CLZ3 (HCA2 human fibroblast dual HR-NHEJ reporter); experiment: HR repair efficiency (tdTomato+ cells) relative to control (log10 fold); higher = more homologous recombination; details: 5 µM; doxycycline 0.5 ug/mL;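 also: compound given one day before doxycycline, which switches on I-SceI endonuclease expression to create double-strand breaks within the integrated reporter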
Listed here are compounds together with their documented HR repair efficiency (log10).
When you answer, write just the number.

The examples below pair each entry with its known result.
CC(C)=CCC[C@](C)(O[C@@H]1O[C@H](CO)[C@@H](O)[C@H](O)[C@H]1O)[C@H]1CC[C@]2(C)[C@@H]1[C@H](O)C[C@@H]1[C@@]3(C)CC[C@H](O[C@@H]4O[C@H](CO)[C@@H](O)[C@H](O)[C@H]4O[C@@H]4O[C@H](CO)[C@@H](O)[C@H](O)[C@H]4O)C(C)(C)[C@@H]3CC[C@]12C [Ginsenoside Rd]; 0.0615
O=C(O)Cc1c(C=CC(=O)OC(Cc2ccc(O)c(O)c2)C(=O)O)ccc(O)c1O (stereo not given); 0.105

Entry C[C@@H]1O[C@@H](O[C@H]2[C@H](O[C@H]3CC[C@@]4(C)[C@@H](CC[C@]5(C)[C@@H]4CC=C4[C@@H]6CC(C)(C)CC[C@]6(C(=O)O[C@@H]6O[C@H](CO[C@@H]7O[C@H](CO)[C@@H](O)[C@H](O)[C@H]7O)[C@@H](O)[C@H](O)[C@H]6O)CC[C@]45C)[C@]3(C)CO)OC[C@H](O)[C@@H]2O)[C@H](O)[C@H](O[C@@H]2O[C@H](CO)[C@@H](O)[C@H](O)[C@H]2O)[C@H]1O : reported HR repair efficiency (log10) = ?
0.0324

Record request: HR repair efficiency (log10) value, item COc1ccc(-c2oc3c(CC=C(C)C)c(O[C@@H]4O[C@H](CO)[C@@H](O)[C@H](O)[C@H]4O)cc(O)c3c(=O)c2O[C@@H]2O[C@@H](C)[C@H](O)[C@@H](O)[C@H]2O)cc1 [Icariine]
-0.0902

Reported HR repair efficiency (log10), compound CC[C@H](CC[C@@H](C)[C@H]1CC[C@H]2[C@@H]3CC=C4C[C@@H](O)CC[C@]4(C)[C@H]3CC[C@]12C)C(C)C : ____
0.098
